Could you please report measured pEC50 for the items listed next?
- System: A10
- measurement.description: Antiproliferative activity against rat A10 cells assessed as microtubule depolymerization after 18 to 24 hrs by indirect immunofluorescence technique
- Format: functional, cell-based
# pEC50 is unitless: minus log10 of the molar concentration; print number only

The molecule COc1ccc(/C=C\c2cc(OC)c(OC)c(OC)c2)cc1O [COMBRETASTATIN A4] showed pEC50 equal to 8.15

The molecule COc1ccc(C2OC(c3cc(OC)c(OC)c(OC)c3)=NN2C(C)=O)cc1OC(C)=O (stereo unspecified) showed pEC50 equal to 4.99

The molecule COc1ccc(C2=NN(C(C)=O)C(c3cc(OC)ccc3OC)O2)cc1 (stereo unspecified) showed pEC50 equal to 5.89

The molecule COc1ccc(C2=NN(C(C)=O)C(c3cc(OC)cc(OC)c3)O2)cc1 (stereo unspecified) showed pEC50 equal to 6.00

The molecule COc1ccc(C2=NN(C(C)=O)C(c3cc(OC)c(OC)c(OC)c3)O2)cc1 (stereo unspecified) showed pEC50 equal to 6.30

The molecule COc1cc(C2=NN(C(C)=O)C(c3cccc(Br)c3)O2)cc(OC)c1OC (stereo unspecified) showed pEC50 equal to 5.82

---

Could you please report measured solubility for the items listed next?
- measurement.description: Relative aqueous solubility at pH 7.4 by filter plate assay
- Type: physicochemical
- settings: buffer

The compound COc1ccc(/C=C\c2cc(OC)c(OC)c(OC)c2)cc1O [COMBRETASTATIN A4] showed solubility equal to 350 µM

The compound COc1ccc(C2OC(c3cc(OC)c(OC)c(OC)c3)=NN2C(C)=O)cc1OC(C)=O (stereo unspecified) showed solubility equal to 112 µM

The compound COc1ccc(C2=NN(C(C)=O)C(c3cc(OC)cc(OC)c3)O2)cc1 (stereo unspecified) showed solubility equal to 94 µM

The compound COc1cc(C2=NN(C(C)=O)C(c3cccc(Br)c3)O2)cc(OC)c1OC (stereo unspecified) showed solubility equal to 66 µM

The compound COc1ccc(C2=NN(C(C)=O)C(c3cc(OC)c(OC)c(OC)c3)O2)cc1 (stereo unspecified) showed solubility equal to 257 µM

The compound COc1ccc(C2=NN(C(C)=O)C(c3cc(OC)ccc3OC)O2)cc1 (stereo unspecified) showed solubility equal to 259 µM

---

Could you please report measured IC50 for the items listed next?
- Test system: L1210
- measurement.description: Antiproliferative activity against mouse L1210 cells after 72 hrs by MTT assay
- Type: functional, cell-based
- settings: L1210, 72 h
Quick reminder: number only, in µM, skip the unit.

The compound COc1ccc(C2=NN(C(C)=O)C(c3cc(OC)ccc3OC)O2)cc1 (stereo not drawn) showed IC50 equal to 0.5

The compound COc1ccc(C2=NN(C(C)=O)C(c3cccc([N+](=O)[O-])c3)O2)cc1 (stereo not drawn) showed IC50 equal to 47

The compound COc1ccc(C2OC(c3cc(OC)c(OC)c(OC)c3)=NN2C(C)=O)cc1OC(C)=O (stereo not drawn) showed IC50 equal to 3.9

---

- System: L1210
- measurement.description: Antiproliferative activity against mouse L1210 cells after 72 hrs by MTT assay
- Assay type: functional, cell-based
- settings: L1210, 72 h
Classify: 1 when IC50 is strictly less than 40 µM; 0 when IC50 is not.

Data request: In plain terms, does COc1ccc(C2=NN(C(C)=O)C(c3ccc(OC)c([N+](=O)[O-])c3)O2)cc1 (stereo unspecified) come in under 40 µM for IC50?
Data returned: 0

Data request: In plain terms, does COc1ccc(C2=NN(C(C)=O)C(c3ccccc3)O2)cc1 (stereo unspecified) come in under 40 µM for IC50?
Data returned: 0

Data request: In plain terms, does COc1ccc(C2=NN(C(C)=O)C(c3cccc(Br)c3)O2)cc1 (stereo unspecified) come in under 40 µM for IC50?
Data returned: 1

Data request: In plain terms, does COc1ccc(C2=NN(C(C)=O)C(c3ccc(OC)c(OC(C)=O)c3)O2)cc1 (stereo unspecified) come in under 40 µM for IC50?
Data returned: 0

Data request: In plain terms, does COc1cc(C2=NN(C(C)=O)C(c3ccccc3)O2)cc(OC)c1OC (stereo unspecified) come in under 40 µM for IC50?
Data returned: 1

Data request: In plain terms, does COc1ccc(OC)c(C2OC(c3cc(OC)c(OC)c(OC)c3)=NN2C(C)=O)c1 (stereo unspecified) come in under 40 µM for IC50?
Data returned: 0

Data request: In plain terms, does COc1ccc(C2=NN(C(C)=O)C(c3ccc(OC)cc3)O2)cc1 (stereo unspecified) come in under 40 µM for IC50?
Data returned: 0

Data request: In plain terms, does COc1cc(OC)cc(C2OC(c3cc(OC)c(OC)c(OC)c3)=NN2C(C)=O)c1 (stereo unspecified) come in under 40 µM for IC50?
Data returned: 1

Data request: In plain terms, does COc1ccc(C2=NN(C(C)=O)C(c3cc(OC)c(OC)c(OC)c3)O2)cc1 (stereo unspecified) come in under 40 µM for IC50?
Data returned: 1

Data request: In plain terms, does COc1ccc(C2=NN(C(C)=O)C(c3cc(OC)cc(OC)c3)O2)cc1 (stereo unspecified) come in under 40 µM for IC50?
Data returned: 1

Data request: In plain terms, does COc1ccc(C2=NN(C(C)=O)C(c3ccc([N+](=O)[O-])cc3)O2)cc1 (stereo unspecified) come in under 40 µM for IC50?
Data returned: 0

Data request: In plain terms, does COc1ccc(C2=NN(C(C)=O)C(c3ccccc3OC)O2)cc1 (stereo unspecified) come in under 40 µM for IC50?
Data returned: 1

Data request: In plain terms, does COc1ccccc1C1OC(c2cc(OC)c(OC)c(OC)c2)=NN1C(C)=O (stereo unspecified) come in under 40 µM for IC50?
Data returned: 0

Data request: In plain terms, does COc1cccc(C2OC(c3cc(OC)c(OC)c(OC)c3)=NN2C(C)=O)c1 (stereo unspecified) come in under 40 µM for IC50?
Data returned: 0

Data request: In plain terms, does COc1cc(C2=NN(C(C)=O)C(c3ccc([N+](=O)[O-])cc3)O2)cc(OC)c1OC (stereo unspecified) come in under 40 µM for IC50?
Data returned: 1

Data request: In plain terms, does COc1cc(C2=NN(C(C)=O)C(c3cccc(Br)c3)O2)cc(OC)c1OC (stereo unspecified) come in under 40 µM for IC50?
Data returned: 1

Data request: In plain terms, does COc1cc(C2=NN(C(C)=O)C(c3cc(OC)c(OC)c(OC)c3)O2)cc(OC)c1OC (stereo unspecified) come in under 40 µM for IC50?
Data returned: 0

Data request: In plain terms, does COc1ccc(C2OC(c3cc(OC)c(OC)c(OC)c3)=NN2C(C)=O)cc1 (stereo unspecified) come in under 40 µM for IC50?
Data returned: 0

Data request: In plain terms, does COc1ccc(C2OC(c3cc(OC)c(OC)c(OC)c3)=NN2C(C)=O)cc1[N+](=O)[O-] (stereo unspecified) come in under 40 µM for IC50?
Data returned: 0
